Experiment: Human HepG2 cell viability assay in 384 well format
Assay type: toxicity, cell-based
Parameters: dose 125 nL, time 70.5 hour; concentration not given beside the values
Conditions: HepG2 cells, read-out: Inhibition
# cytotoxicity at 70.5 h listing for each entry below
Supply the numeric figure in %, leaving out any unit text.

Below, 2 compounds whose answers are already recorded.
compound	cytotoxicity at 70.5 h / %
CCC(C(=O)NCc1csc(N2CCOCC2)n1)n1cccn1 (configuration not stated)	-4.73
Cc1cc(CN2CCCC2c2c(C)nn(C)c2Cl)on1 (configuration not stated)	0.0053

Form field: reported cytotoxicity at 70.5 h of O=c1c(CN2CC3CCCN3C[C@@H]2CCO)coc2ccc(Cl)cc12 (some centres not stated)
-6.6

Fill blank: measured cytotoxicity at 70.5 h of the compound CC(=O)N1CC(Cc2nccc3ccn(C)c23)C1 is ____.
-5.15

Given the entry COc1ccc(CN2CCN(C3CCc4ccccc4C3)CC2)cc1O (configuration not stated) , report its measured cytotoxicity at 70.5 h.
3.2

Please report the recorded cytotoxicity at 70.5 h for CCCc1nc(CNCC2CCCN2c2cccnn2)no1 (configuration not stated) .
22.6

May I ask what cytotoxicity at 70.5 h has been recorded for Cc1cc(C)c(C(=O)N2CCCC(C(=O)CCc3ccccc3)C2)cn1 (configuration not stated) ?
-3.58

---

Assay: Human HepG2 cell viability assay in 384 well format
Assay type: toxicity, cell-based
Parameters: dose 125 nL, time 70.5 hour; concentration not given beside the values
Details: HepG2 cells, read-out: Inhibition
Quick reference: cytotoxicity at 70.5 h of the listed items.
# number only, unit % dropped from output

compound	cytotoxicity at 70.5 h, %
c1coc(-c2noc(CN3CC(n4cccn4)C3)n2)c1	-7.3
CCN1CCC(NC(=O)N(C)Cc2csc3ccccc23)CC1	-8.41
COC[C@@]12CC[C@@H](N3CCOCC3)C[C@H]1CCN(c1ccc(Cl)cn1)C2	-6.42
Cc1n[nH]c(C)c1CCC(=O)NCC1(O)CCN(c2ccccn2)C1 (stereo unspecified)	-1.98
COC(=O)CSCc1noc(-c2ccc(C)cc2)n1	0.48

Here's the next entry for you.
Which measured cytotoxicity at 70.5 h value corresponds to CS(=O)(=O)c1cccc(C(=O)NCc2nc3cc(F)ccc3[nH]2)c1 ?
-5.23

---

Assay: Human HepG2 cell viability assay in 384 well format
Assay type: toxicity, cell-based
Design: dose 125 nL, time 70.5 hour; concentration not given beside the values
Conditions: HepG2 cells, read-out: Inhibition
readout: cytotoxicity at 70.5 h (%)
Give just the number in %; leave the unit off.

Completed entries (count: 5):
molecule	value_reported
COc1cccc(CN(C)C(=O)CN2CC(n3nc(C)cc3C)C2)c1	-1.82
C[S+]([O-])CCNC(=O)N1CCSC2(CCCCC2)C1 (centres undefined)	-3.78
CCCn1nc(C)c2c(C(F)F)cc(=O)n(CC(=O)O)c21	-8.97
Cc1cc(NC(=O)N(C)C2CCCN(c3ccccc3)C2=O)n(C)n1 (centres undefined)	-2.17
O=C(CCC1CCN(C2CSCCSC2)CC1)NCC1CCCO1 (centres undefined)	-7.42

Entry under review: NC(=O)COc1ccc(CNCc2ccc(Cl)c(F)c2)cc1 . Reported cytotoxicity at 70.5 h?
-0.573

Bench note: what cytotoxicity at 70.5 h did Cc1cc(C(=O)N2CCc3ncnc(-c4cnn(C)c4)c3CC2)no1 show?
2.85

Returns the measured cytotoxicity at 70.5 h for the input molecule. Input: O=C(c1cccc2ncccc12)N1CCCC(n2ccnc2)C1 (centres undefined)
-2.04

I would be grateful if you could share the reported cytotoxicity at 70.5 h for CC(C)CC(C#N)NC(=O)c1ccc(Oc2cccnc2)cc1 (centres undefined) .
-5.49

May I ask what cytotoxicity at 70.5 h has been recorded for Cc1cnn(CC2CCCCN2C(=O)c2ccc3[nH]cnc3c2)c1 (centres undefined) ?
8.11

Can you share its cytotoxicity at 70.5 h? I mean this molecule: Cc1cc(NC(=O)CNCc2csc(-c3ncccn3)n2)ccc1Cl
-14.6

Can you share its cytotoxicity at 70.5 h? I mean this molecule: COc1cc(F)ccc1N(C)Cc1cccnc1
15.7

---

Test: Human HepG2 cell viability assay in 384 well format
Assay type: toxicity, cell-based
Design: dose 125 nL, time 70.5 hour; concentration not given beside the values
Conditions: HepG2 cells, read-out: Inhibition
Property: cytotoxicity at 70.5 h; scope: individual molecules

Consider the following illustrative entries.
molecule	cytotoxicity at 70.5 h
O=C(O)c1ccccc1CN1CCC2(Cc3ccccc3CNC2=O)C1 (configuration not stated)	-5.35%
CC(C)Oc1ccccc1C(=O)NCCc1nncn1C	-6.83%
Cc1nc(C)n(CC2CCCN2CC(=O)NCCc2cccs2)n1 (configuration not stated)	-15.5%
COc1cccc(CCCn2cnnc2[S+](C)[O-])c1 (configuration not stated)	-7.37%
CCn1nc2c(cc1=O)CN(Cc1nc(-c3cccnc3)no1)CC2	-14.4%

# input molecule: CC(C)CCN1CC2(CCN(C(=O)C3(C)CC3)CC2)OC1=O ; wanted: its cytotoxicity at 70.5 h
-0.562%

Requested read-out: cytotoxicity at 70.5 h. Entry: Cc1sc2nc(C(F)(F)F)nc(N3CCN(S(C)(=O)=O)CC3)c2c1C
-4.32%

Fill in: cytotoxicity at 70.5 h of CCc1nc(N)nc(NCCC(=O)N2CCCC2)c1C is ___
23.5%

Entry under review: Cc1cccc(C)c1NC(=O)CCNC(=O)c1ccoc1 . Reported cytotoxicity at 70.5 h?
-3.89%

May I ask what cytotoxicity at 70.5 h has been recorded for CC(C)Nc1nc(N2CCCC2)nc2c1CN(C(C)C)CC2 ?
0.846%

What value of cytotoxicity at 70.5 h has been recorded for this entry: COC(=O)COc1c(F)cc(Br)cc1C(C)=O
-2.7%

Could you share which cytotoxicity at 70.5 h value was measured for COc1cc(C(=O)Nc2nc(C)no2)ccc1C ?
36.1%

---

cytotoxicity at 70.5 h for assorted molecules
Assay: Human HepG2 cell viability assay in 384 well format
Format: toxicity, cell-based
Design: dose 125 nL, time 70.5 hour; concentration not given beside the values
Details: HepG2 cells, read-out: Inhibition
// units = %; emit number, no label

Use these answered entries as a reference point.
molecule	value_reported
O=C(CCc1nccs1)N1CCCC(n2cccn2)C1 (centres undefined)	1.23
CCC[C@H]1CN(S(C)(=O)=O)C[C@@H]1NC(=O)Cc1ccc(OC)cc1	9.24
O=C(CN1CCC(c2cc(=O)n3c(n2)CCCCC3)C1)N1CCCCC1 (centres undefined)	-8.93
Cc1cnc(CNC(=O)c2cc3c(s2)CCN3S(C)(=O)=O)cn1	-0.66
CN(Cc1cnc(N)nc1)CC1CCCN(CCc2ccc(Cl)cc2)C1 (centres undefined)	8.66
CN(C(=O)CN1CCCC1Cc1ccccc1)c1ccccc1 (centres undefined)	-7.08
CCC(C(=O)N(Cc1ccccn1)C1CCCCC1)n1cccn1 (centres undefined)	22.3
CCCc1nc(CN2CCc3c(ncn3C3CC3)C2)cs1	-5.23

Which measured cytotoxicity at 70.5 h value corresponds to COCCn1c(C(=O)NCc2n[nH]c(C)n2)cc2ccccc21 ?
-0.294

Give its cytotoxicity at 70.5 h value. Item: COCCCC1(CO)CCCN(Cc2ccc(F)c(OC)c2)C1 (centres undefined)
9.96

# input molecule: CCN(Cc1cn(C)nc1-c1ccc2c(c1)OCCO2)CC1CCCO1 (centres undefined) ; wanted: its cytotoxicity at 70.5 h
-6.76

Which cytotoxicity at 70.5 h value is on record for O=C(CSCc1ccccn1)NCC1CC1 ?
0.905

GET /values?readout=cytotoxicity at 70.5 h&item= CCCC(=O)N1CCN(Cc2cc(-c3ccncc3)nn2C)CC1
0.205

Entry under review: O=C(NCC1CC1)c1c2c(N3CCCC3)ncnc2n2ccccc12 . Reported cytotoxicity at 70.5 h?
9.08

Returns the measured cytotoxicity at 70.5 h for the input molecule. Input: Cc1ccc(Cc2cnc(NC(=O)C3CNC(=O)N3)s2)cc1F (centres undefined)
-0.116

For the molecule shown here, O[C@@H]1CCN(CC2CCOC2)[C@H]1Cc1ccccc1 (some centres undefined) , give the reported cytotoxicity at 70.5 h.
-3.68

# cytotoxicity at 70.5 h lookup, item Cc1ccc(CN(C)C(=O)c2ccc(NC3CC3)nc2)o1
-13.2

# lookup: cytotoxicity at 70.5 h of CS(=O)(=O)Cc1ccc(Cl)c(NCc2noc(C3CC3)n2)c1
0.67

Can you share its cytotoxicity at 70.5 h? I mean this molecule: CCN1C[C@H]2CCN(C(=O)Cc3cccc(OC)c3)CC[C@H]2S1(=O)=O
-8.13

Give the measured cytotoxicity at 70.5 h of CC(NC(=O)Nc1ccc(-c2csnn2)cc1)C(=O)NC(C)(C)C (centres undefined) .
-9.46

# input molecule: O=C1CC(c2cccnc2)c2c(c(C(=O)O)cn2-c2cccc(F)c2)N1 (centres undefined) ; wanted: its cytotoxicity at 70.5 h
-8.96

Record request: cytotoxicity at 70.5 h value, item Cn1c(CN2CCOC[C@H]2c2nc(C(C)(C)C)co2)nc2ccccc21
-0.449

State the recorded cytotoxicity at 70.5 h for this entry: Cc1noc(C2CCCN(C(=O)c3cc(Cl)c(Cl)n3C)C2)n1 (centres undefined)
-6.05

Looking for the measured cytotoxicity at 70.5 h of NC(=O)C1CCN(CCc2ccc(NCc3cccnc3)cc2)CC1 , can you help?
4.26
